Molecular target: Tyrosyl-tRNA synthetase, putative (Trypanosoma cruzi (strain CL Brener)) (UniProt Q4DSP6)
Sequence (Q4DSP6 as listed by the source): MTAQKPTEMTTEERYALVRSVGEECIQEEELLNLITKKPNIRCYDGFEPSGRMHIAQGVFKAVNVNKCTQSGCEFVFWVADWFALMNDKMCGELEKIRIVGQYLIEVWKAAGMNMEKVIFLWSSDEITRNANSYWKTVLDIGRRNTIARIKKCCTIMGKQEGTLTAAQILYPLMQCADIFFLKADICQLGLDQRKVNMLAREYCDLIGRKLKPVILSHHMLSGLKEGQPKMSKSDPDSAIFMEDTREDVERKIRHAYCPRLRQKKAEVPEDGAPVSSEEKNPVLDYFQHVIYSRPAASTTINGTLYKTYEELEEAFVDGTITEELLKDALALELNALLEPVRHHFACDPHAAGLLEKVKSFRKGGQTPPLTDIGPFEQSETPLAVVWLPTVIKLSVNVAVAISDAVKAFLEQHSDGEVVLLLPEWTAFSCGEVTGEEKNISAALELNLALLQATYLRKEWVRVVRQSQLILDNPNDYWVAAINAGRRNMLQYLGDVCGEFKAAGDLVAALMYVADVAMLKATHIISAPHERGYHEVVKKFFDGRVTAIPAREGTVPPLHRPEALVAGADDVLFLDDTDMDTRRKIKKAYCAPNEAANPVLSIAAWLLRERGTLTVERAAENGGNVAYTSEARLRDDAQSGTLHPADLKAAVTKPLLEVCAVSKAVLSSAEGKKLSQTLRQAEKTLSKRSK
Assay: Trypanosoma cruzi tyrosyl tRNA synthetase (TcYRS) SOP
Format: functional
Parameters: scale not given: direction of the effect not stated beside the values
Details: 30 µM
Entries and their Percent Effect values follow.
The answer is to be given in %; state only the numeric part.

[[record]]
compound = "CNC(=O)CN1CCOCC2(CCCN(Cc3cccnc3)C2)C1 (configuration not stated)"
experimental_target = "Tyrosyl-tRNA synthetase, putative (Trypanosoma cruzi (strain CL Brener)) (UniProt Q4DSP6)"
recorded_measurement = 1.22

[[record]]
compound = "c1cncc(N2CCOCC3(CCCN(Cc4cccs4)C3)C2)c1 (configuration not stated)"
experimental_target = "Tyrosyl-tRNA synthetase, putative (Trypanosoma cruzi (strain CL Brener)) (UniProt Q4DSP6)"
recorded_measurement = 15.4

[[record]]
compound = "O=C(c1cc(-n2cnnn2)ccc1Cl)N1CCC2(CC1)OCCO2"
experimental_target = "Tyrosyl-tRNA synthetase, putative (Trypanosoma cruzi (strain CL Brener)) (UniProt Q4DSP6)"
recorded_measurement = 5.2

[[record]]
compound = "NC(=O)CN1CCCN(C(=O)Cc2ccc(F)c(Br)c2)CC1"
experimental_target = "Tyrosyl-tRNA synthetase, putative (Trypanosoma cruzi (strain CL Brener)) (UniProt Q4DSP6)"
recorded_measurement = 7.69

[[record]]
compound = "CO[C@H]1CCN(Cc2ccccn2)[C@@H]2CN(Cc3ccco3)C[C@H]12"
experimental_target = "Tyrosyl-tRNA synthetase, putative (Trypanosoma cruzi (strain CL Brener)) (UniProt Q4DSP6)"
recorded_measurement = 15.4


Prompt line: Report Percent Effect for `CCN1CCC(c2cncc(N(C)C)n2)CC1` please.
Response line: 11.5

Prompt line: Report Percent Effect for `O=C(c1ccc2c(c1)COC2)N1CCC(Nc2ccccc2)CC1` please.
Response line: 24.4

Prompt line: Report Percent Effect for `CN(C)CCN1CCCC12CCN(C(=O)c1cccnc1)CC2` please.
Response line: 7.5

Prompt line: Report Percent Effect for CC(Cc1c(F)cccc1F)NC(=O)Nc1cnn(CC(N)=O)c1 (configuration not stated) please.
Response line: 17.7

Prompt line: Report Percent Effect for O=C1CC2(CCCNC2)C(=O)N1Cc1ccccc1 (configuration not stated) please.
Response line: 0

Prompt line: Report Percent Effect for `CCNC(=O)NC(=O)CNC1(c2noc(C)n2)CCCCC1` please.
Response line: -7.79

Prompt line: Report Percent Effect for `c1cc(CN2C[C@@H]3COC[C@]3(COCC3CC3)C2)ccn1` please.
Response line: 7.69
